# ASSAYED TARGET: IL-17A(FLAG-Tagged): IL-17RA(His-Tagged) (Homo sapiens, UniProt Q16552, K93Q)
# Sequence (Q16552 with tags, fused parts or gaps K93Q): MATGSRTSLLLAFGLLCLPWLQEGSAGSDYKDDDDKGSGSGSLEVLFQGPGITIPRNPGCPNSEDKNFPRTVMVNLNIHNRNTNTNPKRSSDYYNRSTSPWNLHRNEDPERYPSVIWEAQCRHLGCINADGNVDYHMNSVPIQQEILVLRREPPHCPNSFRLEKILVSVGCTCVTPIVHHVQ
# ASSAY COMMENT: IL-17A(FLAG-Tagged): IL-17RA(His-Tagged) Binding Disruption Eu-HTRF Assay
# ASSAY CONTEXT: IL-17A/IL-17RA binding disruption, simple average if tested more than once
Under this convention, Met denotes IC50 strictly below 100 nM and Not met denotes IC50 at or above 100 nM.

Examples from the recorded data:
compound=Cc1cc(C(=O)N[C@H](c2cn3ncc([C@H](NC(=O)CCC(F)(F)F)C4CC4)cc3n2)C2CCC(F)(F)CC2)n(C(C)C)n1 class_label="Not met"
compound="N#CC1(C(NC(=O)CC2CC(F)(F)C2)c2cnn3cc([C@@H](NC(=O)c4nonc4OCC(F)F)C4CCC(F)(F)CC4)nc3c2)CC1 (single isomer, unassigned) [Example 430]" class_label="Not met"
compound="CC(C)C(NC(=O)CC1CC(F)(F)C1)c1cnn2cc([C@@H](NC(=O)c3nonc3OCC(F)F)C3CCC(F)(F)CC3)nc2c1 (stereo in doubt)" class_label=Met
compound="O=C(CCC(F)(F)F)N[C@@H](c1cnn2cc([C@@H](NC(=O)[C@H]3C[C@@H]3CF)C3CCC(F)(F)CC3)nc2c1)C1CC1 (relative stereo)" class_label="Not met"
compound=O=C(CCC(F)(F)F)N[C@@H](c1cnn2cc([C@@H](NC(=O)c3cncc(CC(F)F)c3)C3CCC(F)(F)CC3)nc2c1)C1CC1 class_label=Met

--- query ---
Determine if O=C(CCC(F)(F)F)N[C@@H](c1cnn2cc([C@@H](NC(=O)c3cncc(F)c3)C3CCC(F)(F)CC3)nc2c1)C1CC1 shows IC50 strictly lower than 100 nM.
Not met
